Recorded values, source ChEMBL document CHEMBL1139230.

# Test system: Liver microsomes
# experimentalDetails: Metabolic turnover in rat liver microsomes at 10 uM
# Type: ADME, Microsome
Binary classification by Activity, with 100 pmol/min as an inclusive lower bound for Condition met; all other cases are Condition not met.

Activity >= 100 pmol/min for `CC(C)(C)[C@H]1CC[C@H](N(Cc2ccc(C(=O)NCCC(=O)O)cc2)C(=O)Nc2ccc(Cl)c(Cl)c2)CC1` ?
Condition met

Decide: is the reported value of Activity for `CC(C)(C)[C@H]1CC[C@H](N(Cc2ccc(C(=O)NCCC(=O)O)cc2)C(=O)Nc2ccc(OC(F)(F)F)cc2C#N)CC1` equal to or greater than 100 pmol/min?
Condition not met

Determine whether this compound has Activity no lower than 100 pmol/min: `CC(C)(C)[C@H]1CC[C@H](N(Cc2ccc(C(=O)NCCC(=O)O)cc2)C(=O)Nc2cc(C(F)(F)F)cc(C(F)(F)F)c2)CC1`
Condition met

Is the recorded value of Activity equal to or greater than 100 pmol/min for this compound? `CC(C)(C)[C@H]1CC[C@H](N(Cc2ccc(C(=O)NCCC(=O)O)cc2)C(=O)Nc2ccc(C#N)cc2OC(F)(F)F)CC1`
Condition met

Form field: Activity at least 100 pmol/min? Entry: `CC(C)c1ccc(NC(=O)N(Cc2ccc(C(=O)NCCC(=O)O)cc2)[C@H]2CC[C@H](C(C)(C)C)CC2)cc1`
Condition met
